Give half-life for every item shown.
- assay: Half life in human liver microsomes
- Type: ADME, Microsome

half-life reading for CNC1CN(C(=O)c2cc3cc(Cl)cc(C)c3[nH]2)C1 : > 1.5 h

The measured half-life associated with Cc1cc(Cl)cc2cc(C(=O)N3CCNCC3)[nH]c12 reads > 1.5 h

Reported half-life ( CN[C@@H]1CCN(C(=O)c2cc3cc(Cl)cc(C)c3[nH]2)C1 ) = > 1.5 h

In plain terms, CN1CCN(C(=O)c2cc3cc(Cl)cc(N)c3[nH]2)CC1 has a documented half-life of 1.1 h

Consider Cc1cc(Cl)cc2cc(C(=O)N3CCN(C)CC3)[nH]c12 . Its measured half-life is > 0.75 h

Cc1cc(Cl)cc2cc(C(=O)N3CC(N4CCCC4)C3)[nH]c12 yielded half-life of > 1.5 h

Reference for the values: ChEMBL document CHEMBL2046401
